assay: AUC (0 to t) in female Sprague-Dawley rat at 10 mg/kg, po measured on day 1 by UP/LC/MS/MS analysis; type: ADME, organism-based; conditions: in vivo, time 1 day
PROPERTY NAME: AUC(0-t) at 24 h (ng·h/mL)

[[record]]
smiles_record = "Cl.c1ccc2c(c1)nnn2CCCCN1CCN(c2nsc3ccccc23)CC1"
unit_text = "ng·h/mL"
measurement = 344


###

assay: Cmax in Sprague-Dawley rat at 1 mg/kg, iv measured for 24 hrs by UPLC/MS/MS analysis; type: ADME, organism-based; conditions: in vivo
PROPERTY NAME: Cmax (ng/mL)

[[record]]
smiles_record = "Cl.c1ccc2c(c1)nnn2CCCCN1CCN(c2nsc3ccccc23)CC1"
property_name = "Cmax"
measurement = 468

